Assay: solvent given as SMILES
Conditions: in CS(C)=O
Label Criterion not met if emission maximum falls below 600 nm; label Criterion met in every other case.

Study these solved cases before continuing.
CN(C)c1ccc(C#Cc2ccc(C#N)cc2)cc1 Criterion not met
CCCN(c1ccccc1)c1ccc2c(c1)C(CC)(CC)c1cc(/C=C/c3ccc(/C=C(\C#N)C(=O)O)s3)ccc1-2 Criterion not met
N#Cc1cccc2[nH]ccc12 Criterion not met
CC(=O)c1c2c(cc3ccc(N(C)C)cc13)CCC2 Criterion not met

I'd appreciate it if you could say whether `COc1cc(OC)cc(C2=C3C(C)=C(I)C(/C=C/c4c[nH]c5ccccc45)=[N+]3[B-](F)(F)n3c(/C=C/c4c[nH]c5ccccc45)c(I)c(C)c32)c1` has emission maximum at least equal to 600 nm. Criterion met

Can `O=C1/C(=C2\Sc3ccc(S(=O)(=O)O)cc3C2=O)Sc2ccc(S(=O)(=O)O)cc21` be said to have emission maximum at or above 600 nm? Criterion met

----------
Test: solvent given as SMILES
Conditions: in C1COCCO1
Measured emission maximum, listed per entry for reference.
// return numeric value only (unit: nm, not printed)

Some solved cases for reference:
MOLECULE	emission maximum / nm
COc1ccc(C2=C3C(C)=CC(C)=[N+]3[B-](F)(F)n3c(/C=C/c4ccc(N(C)C)cc4)cc(C)c32)cc1	648
N#Cc1cccc2[nH]ccc12	369
CCCN(c1ccccc1)c1ccc2c(c1)C(CC)(CC)c1cc(/C=C/c3ccc(/C=C(\C#N)C(=O)O)s3)ccc1-2	617
COc1ccc(C2=N/C(=C\c3ccc(C#N)cc3)C(=O)N2)cc1OC	482
CC(C)(C)NS(=O)(=O)c1ccc2c(c1)C(=O)/C(=C1\Sc3ccc(S(=O)(=O)NC(C)(C)C)cc3C1=O)S2	589
Clc1nc(Nc2ccccc2)nc(Nc2ccc3c4cccc5cccc(c6cccc2c63)c54)n1	478

Read off the recorded emission maximum for `O=C1NC(c2ccccc2)=N/C1=C\c1ccccc1` 444

Tell me measured emission maximum for `Cc1ccc(Nc2ccc(Nc3ccc(C)cc3)c3c2C(=O)c2ccccc2C3=O)cc1` please. 684

State its emission maximum for this molecule: `O=CN1N=C(c2ccc(Br)cc2)C[C@@H]1c1ccccc1` 352

Please give the documented emission maximum of CCC12C(=C3C(=C4c5ccc(-c6ccc(CO)cc6)cc5S(=O)(=O)C41CC)C(F)(F)C(F)(F)C3(F)F)c1ccc(-c3ccc(CO)cc3)cc1S2(=O)=O (centres undefined) 538.57

For `CN(C)c1ccc(C2=Cc3ccc4ccccc4[n+]3[B-](F)(F)O2)cc1` , write its emission maximum. 516

Let me know recorded emission maximum for `O=S(=O)(c1ccc(N2c3ccccc3Oc3ccccc32)cc1)c1ccc(N2c3ccccc3Oc3ccccc32)cc1` , thanks. 524

Return value of emission maximum for input COC(=O)C(Cc1ccc2oc(-c3ccc(N(C)C)cc3)nc2c1)NC(=O)OC(C)(C)C (centres undefined) , no commentary. 377

Give the measured emission maximum for `N#Cc1ccc(/C=C2\N=C(c3ccccc3)OC2=O)cc1` 426

Read the entry `CCCCCCCN1C(=CC2=C([O-])C(=Cc3sc4ccccc4[n+]3CCCCCCC)C2=C(C#N)C#N)Sc2ccccc21` and write its reported emission maximum. 723

Provide one value: measured emission maximum of `N#Cc1coc2ccccc2c1=O` 402

Kindly indicate its recorded emission maximum. Item: `c1ccc(-n2c(-c3ccc(-c4ccc(-c5ccc(-c6nc7c8ccccc8c8ccccc8c7n6-c6ccccc6)cc5)cc4)cc3)nc3ccccc32)cc1` 414

For the molecule `O=C1c2ccccc2-c2ccc(N3CCN(c4ccccc4)CC3)c3cccc1c23` , report emission maximum. 578

Dear colleague, please send me the reported emission maximum for `CC1(C)CC(/C=C/c2cn(-c3ccccc3)nc2-c2ccccc2)=CC(=C(C#N)C#N)C1` when you can. 548
